These data points were gathered from ChEMBL document CHEMBL1138529.

assay_name: AUC in BALB/c mouse at 50 mg/kg, po
Type: ADME, organism-based
Design: dose 50 mg/kg, route oral
measurement_context: plasma

# compound, AUC [µM·h]
data = [
    ("COC(=O)N1CCC(CN(C2Cc3cc(C#N)ccc3N(Cc3cncn3C)C2)S(=O)(=O)c2ccccn2)CC1 (stereo unspecified)", 3.68),
    ("Cn1cnc(S(=O)(=O)N(Cc2ccc(C(F)(F)F)o2)C2Cc3cc(C#N)ccc3N(Cc3cncn3C)C2)c1 (stereo unspecified)", 4.55),
    ("Cn1cncc1CN1CC(N(CCn2cccc2)S(=O)(=O)c2ccccn2)Cc2cc(C#N)ccc21 (stereo unspecified)", 15.9),
    ("Cn1cnc(S(=O)(=O)N(CC(=O)NC(C)(C)C)C2Cc3cc(-c4ccccc4)ccc3N(Cc3cncn3C)C2)c1 (stereo unspecified)", 15.7),
    ("CC(C)COC(=O)N1CCC(CN(C2Cc3cc(C#N)ccc3N(Cc3cncn3C)C2)S(=O)(=O)c2ccccn2)CC1 (stereo unspecified)", 4.67),
    ("Cn1cncc1CN1CC(N(CC2CCN(C(=O)OC(C)(C)C)CC2)S(=O)(=O)c2ccccn2)Cc2cc(C#N)ccc21 (stereo unspecified)", 11.8),
]
